# Assayed System: Human mTOR (FLAG-TOR) (Homo sapiens)
# Sequence (P42345 1360-2549 limits assumed): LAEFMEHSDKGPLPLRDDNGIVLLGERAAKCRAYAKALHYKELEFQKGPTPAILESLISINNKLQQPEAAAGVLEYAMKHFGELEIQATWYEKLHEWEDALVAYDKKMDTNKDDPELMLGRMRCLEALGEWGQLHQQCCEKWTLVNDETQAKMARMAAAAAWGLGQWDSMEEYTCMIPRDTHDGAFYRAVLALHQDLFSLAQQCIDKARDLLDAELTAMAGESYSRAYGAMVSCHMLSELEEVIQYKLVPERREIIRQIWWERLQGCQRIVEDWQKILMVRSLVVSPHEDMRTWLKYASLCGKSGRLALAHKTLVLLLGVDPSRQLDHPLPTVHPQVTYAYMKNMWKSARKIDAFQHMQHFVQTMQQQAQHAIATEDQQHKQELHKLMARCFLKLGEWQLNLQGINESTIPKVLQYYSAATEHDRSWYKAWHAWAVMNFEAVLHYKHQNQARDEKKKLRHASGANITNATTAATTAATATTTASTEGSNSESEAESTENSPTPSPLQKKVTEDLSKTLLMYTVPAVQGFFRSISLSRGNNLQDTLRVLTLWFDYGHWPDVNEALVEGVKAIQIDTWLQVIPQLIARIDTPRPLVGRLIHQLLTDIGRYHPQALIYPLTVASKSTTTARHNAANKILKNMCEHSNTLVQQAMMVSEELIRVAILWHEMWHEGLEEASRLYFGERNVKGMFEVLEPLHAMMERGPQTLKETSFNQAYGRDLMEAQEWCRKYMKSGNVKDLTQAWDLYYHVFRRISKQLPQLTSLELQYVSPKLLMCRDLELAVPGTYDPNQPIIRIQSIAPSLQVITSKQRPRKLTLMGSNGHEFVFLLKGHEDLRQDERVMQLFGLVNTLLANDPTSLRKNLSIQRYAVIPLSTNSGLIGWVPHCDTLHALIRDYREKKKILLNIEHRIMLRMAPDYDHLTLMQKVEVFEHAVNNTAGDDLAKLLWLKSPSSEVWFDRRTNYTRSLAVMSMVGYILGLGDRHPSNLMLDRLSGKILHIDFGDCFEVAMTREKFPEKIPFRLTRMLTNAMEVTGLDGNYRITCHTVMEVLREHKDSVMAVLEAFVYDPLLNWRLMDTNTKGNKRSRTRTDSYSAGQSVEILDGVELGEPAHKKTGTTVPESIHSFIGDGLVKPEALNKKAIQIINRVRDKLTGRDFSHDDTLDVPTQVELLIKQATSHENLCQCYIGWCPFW
# Test Name: mTOR kinase assay (DELFIA format, purified enzyme)
# Type: biochemical
# Condition Details: read-out: IC50 mTOR
pIC50: −log10 of the molar value.
Outcome Measure: pIC50

- Compound: "O=C(Nc1ccncc1)Nc1ccc(-c2nc(N3CCCCC3)nc(N3CCOCC3)n2)cc1 [Example 592]"
  pIC50: 8.05
- Compound: "CN1C2CCC1CC(Oc1nc(-c3ccc(NC(=O)Nc4ccncc4)cc3)nc(N3CCOCC3)n1)C2 (centres unmarked) [Example 102]"
  pIC50: 8.21

P. COC(=O)c1ccc(NC(=O)Nc2ccc(-c3nc(C)nc(N4CCOCC4)n3)cc2)cc1 [Example 162]
Q. Cc1cc(NC(=O)Nc2ccc(-c3nc(N4CCOCC4)nc(N4CCOC[C@@H]4C)n3)cc2)ccn1 [Example 92]
R. CC(C)N1CCN(C(=O)c2ccc(NC(=O)Nc3ccc(-c4nc(N5CCOCC5)nc(N5CCOC[C@@H]5C)n4)cc3)cc2)CC1 [Example 618]
Returns the items ordered by pIC50, from maximum to minimum. # list labels per requested ordering
R, Q, P
